Assay Text: Concentration of ladostigil in brain (cortex) of rats after oral or rectal administration (LC-MS/MS)
Format: in vivo
Run Parameters: male, Wistar, rat, other: rectal administration, rectal administration 5 mg/kg, 60 min, read-out: Concentration of ladostigil in brain (cortex), mean ± STD (coefficient of variation)
Result Type: concentration at 60 min (ng/g)

>>> observed_value("C#CCN[C@@H]1CCc2ccc(OC(=O)N(C)CC)cc21 [ladostigil]")
9.3

###

Assay Text: Concentration of ladostigil in plasma of human subjects after a single oral dose (LC/MS/MS)
Format: in vivo, humans
Run Parameters: normal healthy subjects aged 18-40, single oral dose 50 mg, 120 min, read-out: Concentration of ladostigil in plasma, mean ± STD (coefficient of variation)
Result Type: concentration at 120 min (ng/mL)

>>> observed_value("C#CCN[C@@H]1CCc2ccc(OC(=O)N(C)CC)cc21")
2.88

###

Assay Text: Concentration of ladostigil in plasma of rats after oral or rectal administration (LC-MS/MS)
Format: in vivo
Run Parameters: male, Wistar, rat, other: rectal administration, rats, rectal administration 5 mg/kg, 30 min, read-out: Concentration of ladostigil in plasma, mean ± STD (coefficient of variation)
Result Type: concentration at 30 min (ng/mL)

>>> observed_value("C#CCN[C@@H]1CCc2ccc(OC(=O)N(C)CC)cc21 [ladostigil]")
47.2

###

Assay Text: Concentration of ladostigil in plasma of rats after oral or rectal administration (LC-MS/MS)
Type: in vivo
Run Parameters: male, rat, Wistar rats, single oral dose 5 mg/kg, 15 min (Table 1), read-out: Concentration of ladostigil in plasma, mean ± STD (coefficient of variation)
Result Type: concentration at 15 min

>>> observed_value("C#CCN[C@@H]1CCc2ccc(OC(=O)N(C)CC)cc21")
"53.7 ng/mL"
